These measurements were taken from patent US20130040944A1.

- assayed.target: UniProt:Q14833
- Sequence (Q14833 33-912): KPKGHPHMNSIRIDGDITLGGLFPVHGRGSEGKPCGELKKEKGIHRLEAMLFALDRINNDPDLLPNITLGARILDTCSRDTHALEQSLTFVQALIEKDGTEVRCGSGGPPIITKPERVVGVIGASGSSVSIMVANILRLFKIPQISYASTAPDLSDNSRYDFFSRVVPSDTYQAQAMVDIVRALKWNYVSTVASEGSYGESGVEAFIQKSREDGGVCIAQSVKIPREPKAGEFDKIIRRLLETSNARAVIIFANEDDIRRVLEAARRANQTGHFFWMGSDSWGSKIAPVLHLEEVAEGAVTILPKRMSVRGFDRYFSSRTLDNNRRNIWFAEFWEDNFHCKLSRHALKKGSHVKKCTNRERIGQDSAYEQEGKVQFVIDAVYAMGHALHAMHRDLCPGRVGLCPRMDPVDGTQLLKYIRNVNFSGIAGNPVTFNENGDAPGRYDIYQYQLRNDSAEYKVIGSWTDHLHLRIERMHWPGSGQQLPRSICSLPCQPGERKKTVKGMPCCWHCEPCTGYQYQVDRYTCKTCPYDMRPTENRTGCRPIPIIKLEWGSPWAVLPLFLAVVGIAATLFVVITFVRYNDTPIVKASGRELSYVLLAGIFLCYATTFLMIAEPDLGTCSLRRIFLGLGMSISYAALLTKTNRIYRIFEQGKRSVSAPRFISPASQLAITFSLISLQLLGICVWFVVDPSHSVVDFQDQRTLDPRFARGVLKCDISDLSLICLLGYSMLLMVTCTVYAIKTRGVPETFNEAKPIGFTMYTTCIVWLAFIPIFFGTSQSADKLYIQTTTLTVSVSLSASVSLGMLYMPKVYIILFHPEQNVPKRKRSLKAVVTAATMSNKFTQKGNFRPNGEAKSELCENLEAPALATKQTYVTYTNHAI
- test.description: potentiation of human mGluR4 in transfected CHO cells, Ca2+-sensitive dye fluorescence, EC20 agonist
- settings: hEC50, human mGluR4 potentiation; unit inferred
Answer each item with its documented pEC50.
For clarity, pEC50 is expressed as the negative log10 of concentration in mol/L.

In: Give pEC50 (UniProt:Q14833) of the following compound: O=C(Nc1ccn(S(=O)(=O)Cc2ccc(Cl)cc2)c1)c1ccccn1 [Example 95]
Out: 6.47

In: Give pEC50 (UniProt:Q14833) of the following compound: O=C(Nc1ccn(S(=O)(=O)c2ccc3[nH]c(=O)sc3c2)c1)c1ccccn1 [Example 158]
Out: 6.26

In: Give pEC50 (UniProt:Q14833) of the following compound: O=C(Nc1ccn(S(=O)(=O)Cc2ccccc2Cl)c1)c1cscn1 [Example 62]
Out: 6.31

In: Give pEC50 (UniProt:Q14833) of the following compound: O=C(Nc1ccn(S(=O)(=O)c2ccc(Cl)nc2)c1)c1ccccn1 [Example 118]
Out: 6.66

In: Give pEC50 (UniProt:Q14833) of the following compound: O=C(Nc1ccn(S(=O)(=O)c2ccc3occc3c2)c1)c1ccccn1 [Example 150]
Out: 7.07

In: Give pEC50 (UniProt:Q14833) of the following compound: CC1(C)CCc2cc(S(=O)(=O)n3ccc(NC(=O)c4ccccn4)c3)ccc2O1 [Example 149]
Out: 6.45
